# STUDY_SYSTEM: T1, dimeric human LTBR-Fc biotinylated (P1AE2401) (human, UniProt P36941 31-227, biotinylated in vitro)
# T1 construct: bought from R&D Systems (7538-LR); also called human LTBR ECD; not shown: human IgG1 Fc-Fragment
# PROTOCOL_NOTES: competition ELISA vs human LIGHT
PROPERTY_LABEL: IC50 (pM)
Answers are plain numbers, in pM.

Worked examples, 3 binders total:
BINDER	MEASURE_UNIT	IC50
P1AF0064 (antibody, human IgG1, kappa, L234A L235A, V domains shown, human IgG1 PG LALA constant regions; V domains from rat immunization; also called LTBR (0064)) VH: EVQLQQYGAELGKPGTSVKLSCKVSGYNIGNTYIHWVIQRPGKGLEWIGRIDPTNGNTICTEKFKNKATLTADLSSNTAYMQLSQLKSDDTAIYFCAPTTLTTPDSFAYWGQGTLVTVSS VL: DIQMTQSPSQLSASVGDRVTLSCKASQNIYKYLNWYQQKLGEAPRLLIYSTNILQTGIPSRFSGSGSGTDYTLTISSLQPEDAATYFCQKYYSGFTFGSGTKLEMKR	pM	671
P1AF0080 (antibody, human IgG1, kappa, L234A L235A, V domains shown, human IgG1 PG LALA; from transgenic rabbit immunization; also called LTBR (0080)) VH: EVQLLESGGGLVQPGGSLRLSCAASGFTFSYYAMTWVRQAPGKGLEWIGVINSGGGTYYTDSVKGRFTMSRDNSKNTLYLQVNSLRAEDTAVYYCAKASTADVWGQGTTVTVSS VL: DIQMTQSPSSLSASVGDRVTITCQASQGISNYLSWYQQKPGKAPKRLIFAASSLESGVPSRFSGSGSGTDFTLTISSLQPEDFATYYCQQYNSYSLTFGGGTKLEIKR	pM	886
P1AE1873 (CBE11) (antibody, human IgG1, kappa, L234A L235A, V domains shown) VH: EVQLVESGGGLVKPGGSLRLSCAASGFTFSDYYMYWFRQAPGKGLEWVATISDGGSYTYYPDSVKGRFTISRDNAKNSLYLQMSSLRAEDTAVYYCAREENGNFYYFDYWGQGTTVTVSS VL: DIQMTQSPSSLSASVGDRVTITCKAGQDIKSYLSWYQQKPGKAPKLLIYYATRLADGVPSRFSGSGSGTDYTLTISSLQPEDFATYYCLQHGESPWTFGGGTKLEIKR	pM	59.7

Give the measured IC50 of P1AE9457 (antibody, human IgG1, kappa, L234A L235A, V domains shown, human IgG1 PG LALA; from transgenic rabbit immunization; also called LTBR (9457)) VH: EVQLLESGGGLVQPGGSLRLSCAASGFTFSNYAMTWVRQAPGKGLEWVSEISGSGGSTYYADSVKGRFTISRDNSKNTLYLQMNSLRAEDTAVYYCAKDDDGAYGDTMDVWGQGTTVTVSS VL: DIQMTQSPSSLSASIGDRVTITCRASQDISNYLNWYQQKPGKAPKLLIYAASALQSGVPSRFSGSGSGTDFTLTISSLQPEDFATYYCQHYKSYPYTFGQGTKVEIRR .
367
